Tested on: SNB-19 CNS
TEST PROTOCOL: NCI tumour cell line growth inhibition, 48 h
MEASURED ATTRIBUTE: TGI (µM)
Use µM as the unit, but write only the number.

# get_value(readout='TGI', item= O=C1CC(c2ccccc2Cl)C2(C(=O)NC(=S)NC2=O)C(c2ccccc2Cl)C1 (centres undefined) ) 30.9

Also, CN(C)CCCNc1c2c(nc3ccc(Cl)cc13)CCCC2 please. 49.4

Also, C=C1C(=O)c2sccc2C(c2ccc(OC)c(OC)c2)C1COC(C)=O (centres undefined) please. 32.7

###

Tested on: SR leukemia
TEST PROTOCOL: NCI tumour cell line growth inhibition, 48 h
MEASURED ATTRIBUTE: TGI

# get_value(readout='TGI', item= COC(=O)/C(=C(\C)NC(C)=O)c1c(C(=O)OC)[nH]c2ccccc12 ) > 100 µM

Also, Cc1nc(Nc2ccc(Cl)cc2Cl)sc1C(=O)Nc1ccccc1 please. > 100 µM

Also, CCOP(=O)(OCC)/C(C#N)=C/c1coc2cc(C)cc(C)c2c1=O please. > 100 µM

Also, O=c1c2ccccc2nc(-c2ccccc2Cl)n1NCC1(O)OCC(O)C(O)C1O (stereo not given) please. > 100 µM

Also, O=C(N/N=C\c1c(O)ccc2ccccc12)c1ccncc1 please. > 25 µM

Also, COc1ccc(-n2sc3ncc(C)cc3c2=O)cc1 please. > 100 µM

Also, O=C(O)C(C(C(=O)O)P(=O)(O)O)P(=O)(O)O (stereo not given) please. > 100 µM

Also, O=c1c(Br)c(-c2ccccc2)[nH]c2ccccc12 please. > 100 µM

Also, COc1ccccc1N1CCN(CC(O)COc2c(Br)c(Br)c(Br)c3c2OC(C)(C)C3)CC1 (stereo not given) please. > 100 µM

Also, C#Cc1nc(N)c2ncn(C3OC(COS(N)(=O)=O)C(O)C3O)c2n1 (stereo not given) please. < 0.0172 µM

Sourced from PubChem BioAssay (NCI)
